This collection of values is drawn from PubChem BioAssay AID1963836.

Test system: 857933-349-R-J2-PDC complex spheroid viability;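 note: spheroids exposed to compounds for seven days before readout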
Procedure summary: Anticancer human tumor 857933-349-R-J2-PDC patient-derived colon adenocarcinoma cell line growth inhibition [POLQ]
Test parameters: second compound 0.0316 µM; first compound 10 µM; stronger effect = lower value
# viability, T/C annotations
// return numeric value only (unit: %, not printed)

Example entries begin here.
CCc1cc2c(N3CCc4c(cc(Cn5ccnc5)cc4-c4cn(C)nc4C(F)(F)F)C3=O)ccnc2c(OC)n1 + Nc1ccc(C#CCN(C(=O)Cc2ncc(C(F)(F)F)cc2C(F)(F)F)c2ccc(F)cc2)nn1 : 59.2
C=CC(=O)N1CCN(c2nc(=O)n(-c3c(C)ccnc3C(C)C)c3nc(-c4c(O)cccc4F)c(F)cc23)C(C)C1 (stereo not given) + COC1C(OC(N)=O)C(O)C(Oc2ccc3c(O)c(NC(=O)c4ccc(O)c(CC=C(C)C)c4)c(=O)oc3c2C)OC1(C)C : 102
COc1cccc2c1C(=O)c1c(O)c3c(c(O)c1C2=O)CC(O)(C(=O)CO)CC3OC1CC(N)C(O)C(C)O1 (stereo not given) + Cc1cccc(N(C)C(=O)C2C(O)CCN2c2nc(C)cc(C(F)(F)F)c2C#N)c1 : 0.28
COc1ccc([C@@H](O)c2cc(-c3ncnc4cc(N5CCOCC5)ccc34)c(F)cc2Cl)nn1 + Cc1cccc(N(C)C(=O)C2C(O)CCN2c2nc(C)cc(C(F)(F)F)c2C#N)c1 : 64.2

Now for another entry.
Exercise: Suppose we examine the molecule COc1ccc([C@@H](O)c2cc(-c3ncnc4cc(N5CCOCC5)ccc34)c(F)cc2Cl)nn1 + Nc1ccc(C#CCN(C(=O)Cc2ncc(C(F)(F)F)cc2C(F)(F)F)c2ccc(F)cc2)nn1 ; what viability, T/C value has been reported?
Solution: 56.2
